subject of test: T1, SaFapR (Staphylococcus aureus RN4220, UniProt Q2FZ56 1-190)
T1 sequence: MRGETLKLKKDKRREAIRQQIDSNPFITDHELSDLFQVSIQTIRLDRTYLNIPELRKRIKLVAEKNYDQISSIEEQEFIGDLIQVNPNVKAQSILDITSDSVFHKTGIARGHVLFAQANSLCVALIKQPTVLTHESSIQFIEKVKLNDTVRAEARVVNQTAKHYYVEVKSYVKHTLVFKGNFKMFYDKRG
assay summary: ITC; second dimer, sequential binding model, 25 C; ITC: 50 mM Tris-HCl pH 8, 150 mM NaCl, 25 C; EMSA: 20 mM Tris-HCl pH 8, 350 mM NaCl, 10 mM MgCl2, 5 mM DTT, 15 min room temperature, native 5% PAGE in 45 mM Tris-borate pH 8, 1 mM EDTA
experimental parameters: protein: recombinant; tags: N-terminal His-tag removed with TEV protease; chain copies: 2
quantity measured: pKd
Quick note: pKd means taking -log10 of the concentration in moles per liter.

Endpoint output: pKd of PfapR operator 40 bp (dsDNA) DNA 1: GCCAATTATATACTACTATTAGTACCTAGTCTTAATTCCG DNA 2: CGGAATTAAGACTAGGTACTAATAGTAGTATATAATTGGC . Value?
7.29
